- assayTarget: UniProt Q06710
- Sequence (Q06710 whole entry): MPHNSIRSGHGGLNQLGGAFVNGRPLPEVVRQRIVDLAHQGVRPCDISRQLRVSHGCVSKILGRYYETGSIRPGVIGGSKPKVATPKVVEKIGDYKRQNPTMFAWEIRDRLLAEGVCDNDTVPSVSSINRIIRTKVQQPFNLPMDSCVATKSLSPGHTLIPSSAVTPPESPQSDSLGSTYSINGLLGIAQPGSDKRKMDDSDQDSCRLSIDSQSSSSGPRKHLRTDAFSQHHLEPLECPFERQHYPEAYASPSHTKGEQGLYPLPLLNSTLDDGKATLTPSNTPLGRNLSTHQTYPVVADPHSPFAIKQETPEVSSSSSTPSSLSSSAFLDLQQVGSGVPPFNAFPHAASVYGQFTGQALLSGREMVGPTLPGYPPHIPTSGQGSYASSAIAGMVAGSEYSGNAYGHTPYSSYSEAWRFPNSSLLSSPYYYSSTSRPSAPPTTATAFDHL
- protocolText: inhibitors of PAX8-driven TPO luciferase reporter, dose response, RMG-I cells, cherry-pick (AID 687027);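 further: luciferase reporter driven by Pax8 target thyroperoxidase promoter measured by SteadyGlo luminescence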
- Format: functional, cell-based
Calls of active or inactive are those of the source.
Recorded AC50, one value per entry.
measuredQuantity: AC50

INSERT INTO measurements (molecule, measuredquantity, testresult) VALUES
  ('C[C@@H]1CN([C@@H](C)CO)C(=O)c2cc(NC(=O)Nc3ccc(C(F)(F)F)cc3)ccc2O[C@@H](C)CCCCO[C@H]1CN(C)Cc1ccc2c(c1)OCO2', 'AC50', '14.3 µM (active)'),
  ('O=C(c1nnsc1S(=O)(=O)c1ccc(Cl)cc1)N1CCOCC1', 'AC50', '6.05 µM (active)'),
  ('COc1cccc2c1C(=O)c1c(O)c3c(c(O)c1C2=O)CC(O)(C(=O)CO)CC3OC1CC(N(C)C)C(O)C(C)O1 (stereo not drawn)', 'AC50', '0.833 µM (active)');

====

Recorded AC50, one value per entry.
- assayTarget: UniProt:Q63470
- Type: biochemical, Homo sapiens
Calls of active or inactive are those of the source.
measuredQuantity: AC50

INSERT INTO measurements (molecule, testresult) VALUES
  ('Nc1ccc(C(=O)Nc2nc3ccccc3s2)cc1', '4.15 µM (active)'),
  ('C=CC(C)(C)c1c(O)c(CC=C(C)C)c(O)c2c(=O)c3ccc(O)c(O)c3oc12 [GERONTOXANTHONE I]', '8.27 µM (active)'),
  ('COc1ccc(C=C2C(=O)c3ccccc3C2=O)cc1O', '1.7 µM (active)'),
  ('CC(C)=CCc1c(O)ccc2c1OC(c1ccc(O)c(O)c1)CC2=O (stereo unspecified)', '3.68 µM (active)'),
  ('O=C1CCN2C=Nc3cccc4ccc1c2c34', '3 µM (active)'),
  ('O=C1NC(=O)/C(=C/c2ccc(-c3cc(C(=O)O)ccc3Cl)o2)S1', '2.56 µM (active)');

====

- assayTarget: Long-chain-fatty-acid--AMP ligase FadD28 (Mycobacterium tuberculosis, UniProt P9WQ59)
- Sequence (P9WQ59 whole entry): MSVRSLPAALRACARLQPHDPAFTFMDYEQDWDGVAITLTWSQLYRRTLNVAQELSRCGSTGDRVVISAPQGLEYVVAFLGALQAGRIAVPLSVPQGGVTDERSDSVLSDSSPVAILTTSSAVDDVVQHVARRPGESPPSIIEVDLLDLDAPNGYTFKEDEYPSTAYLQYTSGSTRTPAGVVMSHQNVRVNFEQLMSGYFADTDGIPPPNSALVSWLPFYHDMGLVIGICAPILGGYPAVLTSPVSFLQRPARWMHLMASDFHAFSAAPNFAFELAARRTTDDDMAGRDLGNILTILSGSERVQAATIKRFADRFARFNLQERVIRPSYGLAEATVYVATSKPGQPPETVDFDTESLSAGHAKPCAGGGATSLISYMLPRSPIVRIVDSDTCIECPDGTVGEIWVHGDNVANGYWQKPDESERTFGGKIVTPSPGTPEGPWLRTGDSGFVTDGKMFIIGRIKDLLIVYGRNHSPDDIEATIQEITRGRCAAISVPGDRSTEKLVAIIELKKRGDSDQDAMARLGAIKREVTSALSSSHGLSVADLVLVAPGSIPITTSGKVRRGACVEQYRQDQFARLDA
- protocolText: Fluorescence polarization aasay to screen for inhibitors that compete for the binding of FadD28 to a bisubstrate Measured in Biochemical System Using Plate Reader - 2147-01_Inhibitor_Dose_CherryPick_Activity.
- Assay type: functional, Mycobacterium tuberculosis H37Rv
Calls of active or inactive are those of the source.
measuredQuantity: AC50

INSERT INTO measurements (compound, measuredquantity, testresult) VALUES
  ('C/C(NNC(=O)c1ccccc1O)=C1/C(=O)NC(=O)N(C2CCCCC2)C1=O', 'AC50', '24.7 µM (active)'),
  ('CCOc1cc(/C=C2/NC(=O)N(CC(=O)Nc3cccc(C)c3)C2=O)ccc1O', 'AC50', '51.7 µM (active)'),
  ('CC(C(=O)Nc1ccc(O)c(C(=O)O)c1)N1C(=O)/C(=C/c2cccs2)SC1=S (stereo not given)', 'AC50', '> 100 µM (inactive)'),
  ('CCCCCCCCCCCCCCC[C@@H](O)[C@@H](N)CO [DIHYDROSPINGOSINE]', 'AC50', '5.6 µM (active)'),
  ('Cc1ccc(NC(=O)CN2C(=O)S/C(=C\c3cc(C)n(-c4ccc(C(=O)O)cc4)c3C)C2=O)cc1', 'AC50', '2.97 µM (active)');

====

- assayTarget: Protein skinhead-1 (Caenorhabditis elegans, UniProt P34707)
- Sequence (P34707 whole entry): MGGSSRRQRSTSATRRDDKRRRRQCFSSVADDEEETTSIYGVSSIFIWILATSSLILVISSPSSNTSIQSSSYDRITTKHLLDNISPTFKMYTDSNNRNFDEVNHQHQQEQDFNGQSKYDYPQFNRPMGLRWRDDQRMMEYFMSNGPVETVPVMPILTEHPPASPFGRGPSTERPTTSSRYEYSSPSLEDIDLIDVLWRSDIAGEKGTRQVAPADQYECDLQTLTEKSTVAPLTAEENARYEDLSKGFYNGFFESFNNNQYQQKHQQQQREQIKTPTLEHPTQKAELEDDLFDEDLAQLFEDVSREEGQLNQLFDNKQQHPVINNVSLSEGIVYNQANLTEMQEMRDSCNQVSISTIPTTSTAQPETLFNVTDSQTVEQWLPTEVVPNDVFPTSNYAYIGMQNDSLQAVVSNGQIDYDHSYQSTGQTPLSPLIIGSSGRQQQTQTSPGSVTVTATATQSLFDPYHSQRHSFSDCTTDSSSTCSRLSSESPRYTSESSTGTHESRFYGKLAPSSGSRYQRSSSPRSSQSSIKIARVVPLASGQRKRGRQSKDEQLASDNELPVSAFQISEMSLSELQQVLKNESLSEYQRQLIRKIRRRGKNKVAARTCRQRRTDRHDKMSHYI
- Type: functional
Activity calls are given as the source filed them. *1 amine or outer side, *2 acyl side, *3 side chain or, on linkers, in order; H or OH if unused. Where a SMILES comes first, the peptide text is derived from it. Bridges are numbered along the chain shown (N, C = ends). [ ]: non-standard residue; d: D form. ξ: configuration not given here. X1 = CC[C@H](CCC[C@@H](O)[C@@H](C)C(=O)O[C@H](C)[C@@H](C)C/C=C(C)/C(=C\C(=O)[*:1])OC)O[*:2]; NMeξIle = CC[C@H](C)C(NC)C(=O)O; NMeV = CN[C@H](C(=O)O)C(C)C; NMeS = CN[C@@H](CO)C(=O)O
Outcomes: active, inactive

INSERT INTO measurements (compound, assaytarget, cat) VALUES
  ('CCCCOC(=O)Nc1ccc(C(C)C)cc1', 'Protein skinhead-1 (Caenorhabditis elegans, UniProt P34707)', 'active'),
  ('CC(=O)Nc1ccc(NC(=O)C2Cc3c(-c4cccc(F)c4)ccnc3O2)cc1 (stereo not drawn)', 'Protein skinhead-1 (Caenorhabditis elegans, UniProt P34707)', 'inactive'),
  ('Cc1cc(C(=O)CSc2nnc(-c3cccs3)n2Cc2ccccc2)c(C)n1C', 'Protein skinhead-1 (Caenorhabditis elegans, UniProt P34707)', 'inactive'),
  ('CC1OC(c2ccccc2)OC2COC(c3ccccc3)OC12 (stereo not drawn)', 'Protein skinhead-1 (Caenorhabditis elegans, UniProt P34707)', 'inactive'),
  ('Cc1cc([N+](=O)[O-])ccc1NCc1ccccc1', 'Protein skinhead-1 (Caenorhabditis elegans, UniProt P34707)', 'inactive'),
  ('COc1ccc(S(=O)(=O)Nc2cc3c4c(oc3c3ccccc23)CC(C)(C)CC4=O)cc1', 'Protein skinhead-1 (Caenorhabditis elegans, UniProt P34707)', 'inactive'),
  ('C(#Cc1ccc2c(c1)COc1c3ccccc3nn1-2)c1ccccc1', 'Protein skinhead-1 (Caenorhabditis elegans, UniProt P34707)', 'inactive'),
  ('O=C(/C=C/c1ccco1)N1CCc2ccccc21', 'Protein skinhead-1 (Caenorhabditis elegans, UniProt P34707)', 'active'),
  ('Cc1cccc(C)c1OCC(O)CN(Cc1ccccc1O)C1CCCCC1 (stereo not drawn)', 'Protein skinhead-1 (Caenorhabditis elegans, UniProt P34707)', 'inactive'),
  ('Cc1cc(C)c(NC(=O)C[S+]([O-])CC(=O)Nc2ccc(N3CCOCC3)cc2)c(C)c1 (stereo not drawn)', 'Protein skinhead-1 (Caenorhabditis elegans, UniProt P34707)', 'inactive'),
  ('C(=C\c1ccc2ccccc2n1)/c1ccccc1', 'Protein skinhead-1 (Caenorhabditis elegans, UniProt P34707)', 'active'),
  ('CC[C@@H]1CCC[C@@H](O)[C@@H](C)C(=O)O[C@H](C)[C@@H](C)C/C=C(C)/C(OC)=C\C(=O)N(C)C([C@@H](C)CC)C(=O)N(C)[C@@H](C(C)C)C(=O)N(C)[C@@H](COC)C(=O)N2CCC[C@H]2C(=O)N(C)[C@@H](C(C)C)C(=O)N2CCC[C@H]2C(=O)O1 (stereo partly drawn) ([NMeξIle][NMeV][NMeS](Me)P[NMeV]P; linker N-C via X1)', 'Protein skinhead-1 (Caenorhabditis elegans, UniProt P34707)', 'inactive'),
  ('CCOc1ccc2c(=O)c(Oc3ccccc3OCC)coc2c1', 'Protein skinhead-1 (Caenorhabditis elegans, UniProt P34707)', 'inactive');

====

- assayTarget: ORF 73 (Human herpesvirus 8, UniProt O40947)
- Sequence (O40947 whole entry): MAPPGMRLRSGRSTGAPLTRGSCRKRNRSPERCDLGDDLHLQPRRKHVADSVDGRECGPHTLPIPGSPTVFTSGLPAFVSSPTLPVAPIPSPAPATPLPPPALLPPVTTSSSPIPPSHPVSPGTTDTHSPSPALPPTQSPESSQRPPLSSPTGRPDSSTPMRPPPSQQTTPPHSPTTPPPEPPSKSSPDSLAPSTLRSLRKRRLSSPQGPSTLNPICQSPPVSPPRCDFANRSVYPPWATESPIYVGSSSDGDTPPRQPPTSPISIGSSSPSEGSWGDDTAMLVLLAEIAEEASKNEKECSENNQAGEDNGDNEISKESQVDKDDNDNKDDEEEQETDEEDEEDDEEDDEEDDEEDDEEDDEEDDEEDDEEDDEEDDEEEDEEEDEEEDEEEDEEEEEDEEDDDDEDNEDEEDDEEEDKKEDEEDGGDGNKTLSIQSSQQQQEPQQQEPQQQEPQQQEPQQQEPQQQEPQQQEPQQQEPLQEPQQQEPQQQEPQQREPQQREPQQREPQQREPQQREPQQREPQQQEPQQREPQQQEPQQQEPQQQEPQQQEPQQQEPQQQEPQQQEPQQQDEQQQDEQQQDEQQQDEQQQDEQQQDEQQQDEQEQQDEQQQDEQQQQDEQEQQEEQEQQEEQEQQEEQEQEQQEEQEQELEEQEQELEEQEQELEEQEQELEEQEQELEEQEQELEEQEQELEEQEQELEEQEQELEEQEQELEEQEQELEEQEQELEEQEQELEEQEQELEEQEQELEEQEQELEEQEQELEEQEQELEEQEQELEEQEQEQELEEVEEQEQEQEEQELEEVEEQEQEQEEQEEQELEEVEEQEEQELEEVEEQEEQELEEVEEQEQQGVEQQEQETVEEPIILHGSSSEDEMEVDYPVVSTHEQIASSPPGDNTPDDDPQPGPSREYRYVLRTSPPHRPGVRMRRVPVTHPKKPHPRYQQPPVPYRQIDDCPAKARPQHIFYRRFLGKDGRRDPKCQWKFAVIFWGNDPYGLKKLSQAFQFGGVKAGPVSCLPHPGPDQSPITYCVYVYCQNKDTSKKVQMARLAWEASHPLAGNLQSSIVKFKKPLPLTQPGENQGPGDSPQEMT
- protocolText: inhibitors of C-LANA binding to LBS DNA, dose response, biochemical, fluorescence polarization, cherry-picked samples (AID 504725);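 further: fluorescence polarization of a labeled DNA duplex reporting LANA DNA binding; potency is for inhibitors that block LANA binding to the DNA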
- Design: species or system Human gammaherpesvirus 8
The source made the active and inactive calls.
measuredQuantity: AC50

INSERT INTO measurements (compound, testresult) VALUES
  ('O=C1CCN2C=Nc3cccc4ccc1c2c34', '1.42 µM (active)'),
  ('CC(C)C(C(=O)O)N1C(=O)/C(=C/C=C/c2ccco2)SC1=S (centres undefined)', '45.6 µM (active)'),
  ('Cn1nc(-c2ccccc2)c2nc3ccccc3nc21', '42.5 µM (active)'),
  ('COC(=O)c1cc(N2CCN(C)CC2)nc2ccccc12', '59.9 µM (active)');

====

Recorded IC50, one value per entry.
- assayTarget: DNA dC->dU-editing enzyme APOBEC-3A (Homo sapiens)
- Sequence (P31941 whole entry): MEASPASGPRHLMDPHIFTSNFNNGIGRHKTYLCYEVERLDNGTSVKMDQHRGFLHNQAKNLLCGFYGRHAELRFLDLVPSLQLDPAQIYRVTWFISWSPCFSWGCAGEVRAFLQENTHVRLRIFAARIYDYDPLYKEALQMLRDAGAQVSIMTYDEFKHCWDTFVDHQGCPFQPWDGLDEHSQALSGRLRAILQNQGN
- protocolText: Dose Response confirmation of small molecule APOBEC3A DNA Deaminase Inhibitors via a fluorescence-based single-stranded DNA deaminase assay. [Related pubchem assays (depositor defined):AID493011, AID493024]
- Assay type: functional
Active and inactive are the calls of the source.
measuredQuantity: IC50

INSERT INTO results (molecule, assaytarget, measuredquantity, testresult) VALUES
  ('Nn1c(SCC(=O)Nc2ccc3c(c2)OCCO3)nnc(CCC(=O)O)c1=O', 'DNA dC->dU-editing enzyme APOBEC-3A (Homo sapiens)', 'IC50', '9.11 µM (active)'),
  ('CN1CCCN(S(=O)(=O)c2ccccc2)CC1', 'DNA dC->dU-editing enzyme APOBEC-3A (Homo sapiens)', 'IC50', '4.85 µM (active)'),
  ('CCOC(=O)/C(CCCN(CC)CC)=N\O', 'DNA dC->dU-editing enzyme APOBEC-3A (Homo sapiens)', 'IC50', '1.35 µM (active)'),
  ('CCN1CCN(c2ccc(S(=O)(=O)N3CCOCC3)cc2NC(=O)C(C)Oc2ccc(Cl)cc2)CC1 (centres undefined)', 'DNA dC->dU-editing enzyme APOBEC-3A (Homo sapiens)', 'IC50', '9.56 µM (active)');
